The origin of these recorded values is ChEMBL document CHEMBL1139593.

Target: Procathepsin L (Homo sapiens) (UniProt P07711)
Sequence (P07711 114-333 limits assumed): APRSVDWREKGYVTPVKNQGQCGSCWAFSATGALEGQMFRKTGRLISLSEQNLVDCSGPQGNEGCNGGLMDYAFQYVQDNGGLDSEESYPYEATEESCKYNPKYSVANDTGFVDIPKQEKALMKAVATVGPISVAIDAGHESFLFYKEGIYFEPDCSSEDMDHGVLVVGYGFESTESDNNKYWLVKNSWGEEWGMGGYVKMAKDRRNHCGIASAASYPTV
Experiment: Percent inhibition of human liver cathepsin L at 2 uM
readout.kind: inhibition (%)
Provide only the numeric value, understood in %.

Recorded results for 4 compounds are shown here.
Cc1c(C(=O)N[C@@H](Cc2ccccc2)C(=O)C(=O)NCc2ccccc2)oc2ccccc2c1=O : 65.3
Cc1c(C(=O)N[C@@H](Cc2ccccc2)C(=O)C(N)=O)oc2cc3c(cc2c1=O)OCCO3 : 86.3
NC(=O)C(=O)[C@H](Cc1ccccc1)NC(=O)c1cc(=O)c2ccccc2o1 : 87.7
Cc1c(C(=O)N[C@@H](Cc2ccccc2)C(=O)C(=O)NC(C)C)oc2cc3c(cc2c1=O)OCCO3 : 24.6

Continue with the next compound.
For "Cc1c(C(=O)N[C@@H](Cc2ccccc2)C(=O)C(=O)NCCN2CCOCC2)oc2ccccc2c1=O" the compound record lists inhibition as 9.6

* * *

Molecular target: Calpain-1 catalytic subunit (Homo sapiens, UniProt P07384)
Sequence (P07384 whole entry): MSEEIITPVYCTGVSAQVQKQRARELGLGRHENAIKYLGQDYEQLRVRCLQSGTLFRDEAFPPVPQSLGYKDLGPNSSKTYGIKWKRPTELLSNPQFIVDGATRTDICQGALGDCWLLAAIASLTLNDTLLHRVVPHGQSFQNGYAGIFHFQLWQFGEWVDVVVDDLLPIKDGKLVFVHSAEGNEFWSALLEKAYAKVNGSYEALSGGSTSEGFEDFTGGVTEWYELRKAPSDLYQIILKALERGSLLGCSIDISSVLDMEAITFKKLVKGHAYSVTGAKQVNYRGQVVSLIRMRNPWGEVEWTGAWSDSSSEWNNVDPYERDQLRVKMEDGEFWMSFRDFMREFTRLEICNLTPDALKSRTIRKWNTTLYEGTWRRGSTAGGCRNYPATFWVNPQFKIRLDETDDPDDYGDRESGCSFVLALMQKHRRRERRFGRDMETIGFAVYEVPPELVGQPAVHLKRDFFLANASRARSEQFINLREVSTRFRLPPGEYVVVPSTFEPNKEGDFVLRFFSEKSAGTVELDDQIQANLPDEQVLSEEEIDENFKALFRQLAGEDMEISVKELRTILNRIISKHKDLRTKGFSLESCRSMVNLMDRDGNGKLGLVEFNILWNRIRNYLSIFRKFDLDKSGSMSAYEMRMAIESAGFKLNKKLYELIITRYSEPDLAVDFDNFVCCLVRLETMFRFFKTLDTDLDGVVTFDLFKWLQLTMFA
Experiment: Inhibitory concentration against human plasma mu-calpain
Binned IC50; ranges: 1: < 700 nM; 2: ≥ 700 nM and < 5000 nM; 3: ≥ 5000 nM

Take a look at these entries with their results.
Cc1c(C(=O)N[C@@H](Cc2ccccc2)C(=O)C(=O)NC(C)C)oc2ccccc2c1=O : 3
Cc1c(C(=O)N[C@@H](Cc2ccccc2)C(=O)C(=O)NCc2ccccc2)oc2cc3c(cc2c1=O)OCCO3 : 2
Cc1c(C(=O)N[C@@H](Cc2ccccc2)C(=O)C(N)=O)oc2cc3c(cc2c1=O)OCCO3 : 2

# bin lookup: classify "NC(=O)C(=O)[C@H](Cc1ccccc1)NC(=O)c1cc(=O)c2ccccc2o1" by its IC50
3

Exercise: read the entry "Cc1c(C(=O)N[C@@H](Cc2ccccc2)C(=O)C(=O)NCCN2CCOCC2)oc2cc3c(cc2c1=O)OCCO3" and state which class it falls under.
3

For the record "Cc1c(C(=O)N[C@@H](Cc2ccccc2)C(=O)C(N)=O)oc2ccccc2c1=O" , report the class its IC50 corresponds to.
1

Using the reported IC50, which band applies to "CCc1c(C(=O)N[C@@H](Cc2ccccc2)C(=O)C(N)=O)oc2ccccc2c1=O" ?
1

Category of "Cc1c(C(=O)N[C@@H](Cc2ccccc2)C(=O)C(=O)NC(C)C)oc2cc3c(cc2c1=O)OCCO3" :
3

Lab note: which band did "Cc1c(C(=O)N[C@@H](Cc2ccccc2)C(=O)C(=O)NCCc2ccccc2)oc2ccccc2c1=O" land in?
1

Which of the defined bands does the recorded IC50 of "Cc1c(C(=O)N[C@@H](Cc2ccccc2)C(=O)C(=O)NCCc2ccccc2)oc2cc3c(cc2c1=O)OCCO3" sit within?
2

Which class is correct for the following compound? "Cc1c(C(=O)N[C@@H](Cc2ccccc2)C(=O)C(=O)NCCN2CCOCC2)oc2ccccc2c1=O"
3

* * *

Biological target: UniProt P07688
Assay: Percent inhibition of bovine cathepsin B at 0.2 uM
Catalogue of inhibition readings, one per entry.
The reply should be a number in %, with the unit left off.

Known inhibition results, listed for orientation:
Cc1c(C(=O)N[C@@H](Cc2ccccc2)C(=O)C(=O)NC(C)C)oc2ccccc2c1=O : 0
Cc1c(C(=O)N[C@@H](Cc2ccccc2)C(=O)C(=O)NCc2ccccc2)oc2ccccc2c1=O : 0
Cc1c(C(=O)N[C@@H](Cc2ccccc2)C(=O)C(=O)NCCN2CCOCC2)oc2ccccc2c1=O : 0
Cc1c(C(=O)N[C@@H](Cc2ccccc2)C(=O)C(=O)NCCc2ccccc2)oc2cc3c(cc2c1=O)OCCO3 : 0

The recorded inhibition for "CCc1c(C(=O)N[C@@H](Cc2ccccc2)C(=O)C(N)=O)oc2ccccc2c1=O" is 16.9

Per the records, this molecule ( "Cc1c(C(=O)N[C@@H](Cc2ccccc2)C(=O)C(N)=O)oc2ccccc2c1=O" ) has inhibition equal to 14.4
